Tested on: Acinetobacter baumannii NCTC 13304 (OXA-27)
Assay type: cell-based
test-parameters: NCTC 13304
Bridge positions count the residues as written; N and C are the ends. Square brackets hold non-standard residues; d marks the D form. Peptide text beside a SMILES is read from it. * marks the point of attachment. Octanoyl = CCCCCCCC(=O)*; Dab = NCC[C@H](N)C(=O)O; Dap = NC[C@H](N)C(=O)O
property-name: MIC (µg/mL)
Express it in µg/mL; write the number only.

Which MIC is listed for CCCCCCCC(=O)N[C@@H](CCN)C(=O)N[C@H](C(=O)N[C@H](CO)C(=O)N[C@H]1CCNC(=O)[C@H]([C@@H](C)O)NC(=O)[C@H](CCN)NC(=O)[C@H](CCN)NC(=O)[C@H]([C@@H](C)O)NC(=O)[C@@H](Cc2ccccc2)NC(=O)[C@H](CN)NC1=O)[C@@H](C)O [Compound 63] (Octanoyl-[Dab]T[dS][Dab][Dap][dF]T[Dab][Dab]T; lactam 4-C) ?
0.25
